# Test system: Mycobacterium
# assay name: Inhibition of Mycobacterium membrane bound ATP synthase
# Design: concentration or dose not given beside the values
# test parameters: concentration not given here
recorded metric: inhibition (%)

>>> numeric_result("COc1ccc(/C=N/NC(=O)c2cnc3c(C(F)(F)F)cccc3c2N[C@@H](CSc2ccccc2)CC(=O)N(C)C)cc1")
0
>>> numeric_result("CN(C)C(=O)C[C@H](CSc1ccccc1)Nc1c(C(=O)N/N=C/c2ccc(OC(F)(F)F)cc2)cnc2ccc(F)cc12")
90
>>> numeric_result("COc1ccc(/C=N/NC(=O)c2cnc3ccc(F)cc3c2N[C@@H](CSc2ccccc2)CC(=O)N(C)C)cc1")
0
>>> numeric_result("CN(C)C(=O)C[C@H](CSc1ccccc1)Nc1c(C(=O)N/N=C/c2ccc(F)cc2)cnc2c(C(F)(F)F)cccc12")
90
>>> numeric_result("CN(C)C(=O)C[C@H](CSc1ccccc1)Nc1c(C(=O)N/N=C/c2ccc(F)cc2)cnc2ccc(F)cc12")
95
>>> numeric_result("CN(C)C(=O)C[C@H](CSc1ccccc1)Nc1c(C(=O)N/N=C/c2cccnc2)cnc2ccc(F)cc12")
90

---

# System: Mycobacterium
# assay name: Inhibition of Mycobacterium membrane bound ATP synthase
# Set-up: concentration or dose not given beside the values
# test parameters: concentration not given here
Collected inhibition values appear next to each entry.
recorded metric: inhibition (%)

>>> numeric_result("CN(C)C(=O)C[C@H](CSc1ccccc1)Nc1c(C(=O)N/N=C/c2cc(F)ccc2O)cnc2ccc(F)cc12")
0
>>> numeric_result("CN(C)C(=O)C[C@H](CSc1ccccc1)Nc1c(C(=O)N/N=C/c2ccc(OC(F)(F)F)cc2)cnc2c(C(F)(F)F)cccc12")
90

---

# System: Mycobacterium
# assay name: Inhibition of Mycobacterium membrane bound ATP synthase
# Design: concentration or dose not given beside the values
# test parameters: concentration not given here
recorded metric: inhibition

>>> result("CCCCCCCC/C=N/NC(=O)c1cnc2ccc(F)cc2c1N[C@@H](CSc1ccccc1)CC(=O)N(C)C")
"> 95%"
>>> result("CCCCCCCC/C=N/NC(=O)c1cnc2c(C(F)(F)F)cccc2c1N[C@@H](CSc1ccccc1)CC(=O)N(C)C")
"> 95%"
>>> result("NNC(=O)c1ccncc1")
"> 95%"
>>> result("CN(C)C(=O)C[C@H](CSc1ccccc1)Nc1c(C(=O)N/N=C/c2cccc(OC(F)(F)C(F)F)c2)cnc2ccc(F)cc12")
"> 95%"
